Provenance of the data: the supplement of paper PMC6089552

# Test system: A673/TR/shEF
# assay: cell viability (LOESS-normalised, relative to median of negative controls) (log2 ratio); higher = more viable cells (less compound effect), active = hit call of the paper (over 3 MAD below the median)
# stated_conditions: 0.25 µM; library screen: screen1; EWS-FLI1 expression: low (doxycycline-induced shRNA knockdown); treatment time: 72 h
The campaign covered roughly 3,200 compounds. About 300 (9.4%) showed activity. The full list was thinned out, with actives kept by preference.
Each record is given fulfilled if its reported cell viability (log2) is strictly below 0.05. Records at or above 0.05 are given not fulfilled.

Given the entry Cc1nnc(SCC(=O)N2c3cc(C)c(C)cc3-c3c(ssc3=S)C2(C)C)s1 , would its reported cell viability (log2) be below 0.05? not fulfilled

Hello, is cell viability (log2) of the following molecule strictly smaller than 0.05? N#Cc1c2c(c(NCCCO)n3c1nc1ccccc13)CCC2 fulfilled

is_below(cell viability (log2), 0.05) for COc1ccc(CN2CCN(Cc3ccc(OC)c(OC)c3OC)CC2)cc1OC ? fulfilled

Please determine if CCCCCCCCCCCCCCCC(=O)C1=C(O)[C@@H](CO)OC1=O is below 0.05 in terms of cell viability (log2). not fulfilled

Find out if reported cell viability (log2) for Cc1ccc(-c2nn(C(C)(C)C)c3ncnc(N)c23)cc1 is less than 0.05 fulfilled

Check if cell viability (log2) falls below 0.05 for CCOC([O-])=Nc1c[n+](N2CCOCC2)no1 . fulfilled

I'd appreciate it if you could check whether COc1cc2ncnc(Nc3cccc(Cl)c3)c2cc1OC has cell viability (log2) smaller than 0.05. fulfilled

Problem: For the molecule CSc1ccc(CN2CCN(Cc3ccco3)CC2)cc1 , is cell viability (log2) under 0.05? fulfilled

I'd appreciate it if you could check whether CC(C)(C)n1nc(-c2ccc(Cl)cc2)c2c(N)ncnc21 has cell viability (log2) smaller than 0.05. fulfilled

---

# System: A673/TR/shEF
# assay: cell viability (LOESS-normalised, relative to median of negative controls) (log2 ratio); higher = more viable cells (less compound effect), active = hit call of the paper (over 3 MAD below the median)
# stated_conditions: 2.5 µM; library screen: screen1; EWS-FLI1 expression: high (no doxycycline); treatment time: 72 h
Out of some 3,200 compounds screened, about 300 (9.4%) showed activity. The list comes from a sample in which actives are over-represented; it also holds close analogues and randomly drawn compounds.
// allowed return values: active, inactive

Examples with answers:
{"columns": ["compound", "assigned_class"],
 "data": [
  ["COc1ccccc1-c1cc(=O)c2cccc(OC)c2o1", "inactive"],
  ["N/C(=N/c1nc2ccccc2o1)NC(=O)Nc1ccccc1", "inactive"],
  ["CC(=O)O[C@H]1C[C@@H](OC(C)=O)C(C)(C)[C@@H]2C[C@@H](OC(C)=O)[C@]3(C)[C@H](CC[C@@]4(C)[C@H](c5ccoc5)OC(=O)[C@H]5O[C@@]534)[C@@]12C", "inactive"],
  ["CC12CCC3c4ccc(OC(=O)c5ccccc5)cc4CCC3C1CCC2=O (stereo not drawn)", "inactive"],
  ["COCCCN1C(=O)C(=Cc2sccc2C)SC1=S", "inactive"],
  ["C[C@]12CC[C@@H]3c4ccc(O)cc4CC[C@H]3[C@@H]1CC[C@@H]2OC(=O)CCC1CCCC1", "inactive"],
  ["COc1ccc(-c2coc3cc(OC(C)=O)cc(OC(C)=O)c3c2=O)cc1", "inactive"],
  ["COc1ccc(-c2nn(-c3ccccc3)cc2C=O)cc1[N+](=O)[O-]", "inactive"]
]}

Which outcome was entered for the compound Cc1nc2ccccn2c(=O)c1CCN1CCC(C(=O)c2ccc(F)cc2)CC1 in this test? inactive

Kindly provide the recorded test outcome for the following compound: COc1cc2c(cc1OC)[C@@H]1C(=O)c3c(cc4c(c3O)C=CC(C)(C)O4)O[C@@H]1CO2 active

Assay result, entry COC(=O)C1=C(C)NC2=C(C(=O)CCC2)C1c1coc2ccccc2c1=O (stereo not drawn) — outcome? inactive

Name the outcome recorded for Cc1ccccc1CN1CCN(Cc2ccco2)CC1 in the assay. inactive

Test call for this compound, please: CCCCCCCCCCC[C@@H](C[C@@H]1OC(=O)[C@H]1CCCCCC)OC(=O)[C@H](CC(C)C)NC=O active

GET /call?item= COc1ccc2c(c1)O[C@H]1c3ccc(O)cc3OC[C@@H]21 returns the recorded outcome of this test. inactive

Test call for this compound, please: COc1cccc2c1CCC1CC(=O)CC[C@]21C (stereo partly drawn) inactive

Assay result, entry CN(C)c1ccc(C=C2SC(=S)N(c3ccc(F)cc3)C2=O)cc1 — outcome? inactive

---

Measured cell viability (log2), listed per entry.
# System: A673/TR/shEF
# assay: cell viability (LOESS-normalised, relative to median of negative controls) (log2 ratio); higher = more viable cells (less compound effect), active = hit call of the paper (over 3 MAD below the median)
# stated_conditions: 0.25 µM; library screen: screen1; EWS-FLI1 expression: low (doxycycline-induced shRNA knockdown); treatment time: 72 h
The campaign covered roughly 3,200 compounds. About 300 (9.4%) showed activity. This is one part of a sample in which actives are shown more often than they occur.
Answer field: number only, no words.

Considering CC1(C)OC(=O)C=C[C@@]2(C)C1C[C@@H](O)[C@]1(C)C2CC[C@@]2(C)[C@H](c3ccoc3)OC(=O)C3OC321 (stereo not given in full) , its cell viability (log2) with A673/TR/shEF was recorded as 0.0686

Measured cell viability (log2) for this entry O=C(O)/C=C(/CC(=O)O)C(=O)O on A673/TR/shEF: 0.00778

Form field, cell viability (log2) with A673/TR/shEF, item CCOc1ccc(C(=O)Nc2cccc(OC)c2)cc1Cl : 0.0408

So the reported cell viability (log2) for NC[C@@H]1O[C@H](O[C@@H]2[C@@H](CO)OC(O[C@H]3C(O[C@H]4O[C@H](CO)[C@@H](O)[C@H](O)[C@H]4N)[C@@H](N)C[C@@H](N)[C@@H]3O)[C@@H]2O)[C@H](N)[C@@H](O)[C@@H]1O (stereo not given in full) , on A673/TR/shEF, turned out to be 0.116

// returns cell viability (log2) for NC(=O)NCC(N)C(=O)O (stereo not given) with A673/TR/shEF; value = 0.00393

---

# System: A673/TR/shEF
# assay: cell viability (LOESS-normalised, relative to median of negative controls) (log2 ratio); higher = more viable cells (less compound effect), active = hit call of the paper (over 3 MAD below the median)
# stated_conditions: 2.5 µM; library screen: screen1; EWS-FLI1 expression: low (doxycycline-induced shRNA knockdown); treatment time: 72 h
The campaign covered roughly 3,200 compounds. About 300 (9.4%) showed activity. Many of the other results were omitted from the sample, so actives are more common in it than they were.
One threshold, 0.1, splits the recorded cell viability (log2) values: lower ones are 1, equal or higher ones are 0.

Below, 8 compounds whose answers are already recorded.
{"columns": ["compound", "measured_target", "assigned_class"],
 "data": [
  ["COc1ccc(C(=O)c2ccc(O)cc2O)c(O)c1", "A673/TR/shEF", 0],
  ["C=C1C[C@]23C[C@@]1(O)CC[C@H]2[C@@]12C=C[C@H](O)C(C)(C(=O)O1)[C@H]2[C@@H]3C(=O)O", "A673/TR/shEF", 1],
  ["O=C(Nc1ccncc1)c1cc(-c2ccccc2)nc2ccccc12", "A673/TR/shEF", 1],
  ["CC1=C2[C@H]3OC(=O)[C@@H](C)[C@@H]3[C@@H](O)C[C@@]2(C)C=CC1=O", "A673/TR/shEF", 1],
  ["C[N+]1(C)C2CC[C@H]1CC(OC(=O)C(O)c1ccccc1)C2 (stereo not given in full)", "A673/TR/shEF", 1],
  ["C=CC(=O)c1ccc2ccccc2c1", "A673/TR/shEF", 0],
  ["COc1ccc(C(C)C(=O)c2ccc(O)cc2O)cc1 (stereo not given)", "A673/TR/shEF", 0],
  ["O=C(Oc1cc(O)cc2c1CC(OC(=O)c1cc(O)c(O)c(O)c1)C(c1ccc(O)c(O)c1)O2)c1cc(O)c(O)c(O)c1 (stereo not given)", "A673/TR/shEF", 1]
]}

Attention now turns to another entry.
Below 0.1 on cell viability (log2)? Entry CC1(C)C(=O)CCC2(C)C1CC(O)C1(C)C2CCC2(C)C(c3ccoc3)OC(=O)C3OC321 (stereo not given) 1

---

# Tested on: A673/TR/shEF
# assay: cell viability (LOESS-normalised, relative to median of negative controls) (log2 ratio); higher = more viable cells (less compound effect), active = hit call of the paper (over 3 MAD below the median)
# stated_conditions: 0.25 µM; library screen: screen1; EWS-FLI1 expression: high (no doxycycline); treatment time: 72 h
Out of some 3,200 compounds screened, about 300 (9.4%) showed activity. For the sample, actives were picked, then their nearest neighbours and some compounds at random.
Valid outcomes are listed here; reply with one: Yes for active, No for inactive

Example entries and their recorded answers appear below.
{"columns": ["compound", "assigned_class"],
 "data": [
  ["Cc1coc2ccccc2c1=O", "No"],
  ["CC(=O)O[C@H]1CC[C@@]2(C)[C@@H](CC[C@@H]3[C@@H]2CC[C@]2(C)[C@@H]4[C@H](C[C@@H]32)O[C@]2(CC[C@@H](C)CO2)[C@H]4C)C1", "No"],
  ["O=C(O)c1ccc2c(c1)OCO2", "No"]
]}

Returns: the outcome recorded for NCCCC(N)CC(=O)NCC1NC(=O)C(CO)NC(=O)C(N)CNC(=O)C(C2CCN=C(N)N2)NC(=O)/C(=C/NC(N)=O)NC1=O (stereo unspecified) in this assay. No

Per the assay record, what outcome was assigned to COc1ccc(CN2CCN(Cc3ccccc3C(F)(F)F)CC2)c(OC)c1OC ? No
